Values were extracted from patent US20250026746A1.

Molecular target: extracellular domain human GC-A recombinant protein (Homo sapiens, UniProt P16066)
Construct: extracellular domain human GC-A recombinant protein; purchased My BioSource, Inc. San Diego, CA
Sequence (P16066 33-473 limits assumed): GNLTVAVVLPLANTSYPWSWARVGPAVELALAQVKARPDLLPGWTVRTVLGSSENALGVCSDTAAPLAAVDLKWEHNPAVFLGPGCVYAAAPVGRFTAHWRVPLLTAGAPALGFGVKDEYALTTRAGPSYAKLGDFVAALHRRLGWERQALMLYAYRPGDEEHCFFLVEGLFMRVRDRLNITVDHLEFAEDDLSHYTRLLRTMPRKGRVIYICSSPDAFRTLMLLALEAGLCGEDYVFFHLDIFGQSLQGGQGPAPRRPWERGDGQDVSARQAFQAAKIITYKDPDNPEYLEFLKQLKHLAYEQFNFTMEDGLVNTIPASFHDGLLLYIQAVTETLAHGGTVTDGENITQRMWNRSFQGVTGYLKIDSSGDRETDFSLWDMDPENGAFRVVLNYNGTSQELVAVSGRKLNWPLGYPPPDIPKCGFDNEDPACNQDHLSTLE
Experiment: Surface plasmon resonance binding to GC-A receptor
Conditions: acetate salt; SPR 25° C., 1:1 Langmuir model
Structures can show the parent of a compound that is named as a salt.

[
  {
    "Compound": "CN(C)CCN1CCC[C@H](C(=O)Nc2nc3c(F)cc(F)cc3s2)C1 [Compound 1 acetate salt]",
    "Kd": "0.012 µM"
  },
  {
    "Compound": "CN(C)CCN1CCCC(C(=O)Nc2nc3c(F)cc(F)cc3s2)C1 (racemic) [Compound 3 acetate salt]",
    "Kd": "0.176 µM"
  },
  {
    "Compound": "CN(C)CCN1CCC[C@H](C(=O)Nc2nc3c(F)cc(F)cc3s2)C1 [Compound 1]",
    "Kd": "0.012 µM"
  },
  {
    "Compound": "CN(C)CCN1CCC[C@@H](C(=O)Nc2nc3c(F)cc(F)cc3s2)C1 [Compound 2]",
    "Kd": "0.121 µM"
  },
  {
    "Compound": "CN(C)CCN1CCC[C@@H](C(=O)Nc2nc3c(F)cc(F)cc3s2)C1 [Compound 2 acetate salt]",
    "Kd": "0.12 µM"
  },
  {
    "Compound": "CN(C)CCN1CCCC(C(=O)Nc2nc3c(F)cc(F)cc3s2)C1 (racemic) [Compound 3]",
    "Kd": "0.176 µM"
  }
]
